# tgt: SARS-CoV-2 wild-type RBD (SARS-CoV-2 wild type)
# test_summary: BLI
# cond: both partners purified
measurement_type: koff (s⁻¹)
The answer is to be given in s⁻¹; state only the numeric part.

Recorded results for 5 binders are shown here.
Lab note: C092 (antibody, V domains shown, human IgG1) VH: QVQLVQSGAEVKKPGSSVKVSCKASGGSFTNHFISWVRQAPGQGLEWMGRIIPILGTANYAQNFQGRVMMTADKSTSTAYMELSSLRSEDTAVYYCARDSGYSGYGSTYYMDVWGKGTTVTVSS VL: QSVLTQPPSVSGAPGQRVTISCTGSNSNIGAGYDVHWYQQLPGAAPKLLIYGNNNRPSGVPDRFSGSKSDTSASLAITGLQVEDEADYYCQSYDSSLSDSVFGSGTKVTVL gave koff of 0.000103

Lab note: C807 (antibody, V domains shown, human IgG1) VH: QVQLVQSGAEAKKPGSSVKVSCKASGGTFKSYIINWVRQAPGQGLEWMGEIIPIFGTANYAQKFQGRVTSTADESTSTAYMELSSLKSEDTAVYYCARGRGYSGYGASYYFDYWGQGTLVTVSS VL: QSVLTQPPSVSGAPGQRVTISCTGSNSNIGAGYDVHWYQQLPGTAPKLLIYANSNRPSGVPDRFSGSKSGTSASLAITGLQAEDEADYYCQSYDSGLSGSVFGGGTKLTVL gave koff of 0.000431

Lab note: C832 (antibody, V domains shown, human IgG1) VH: QVQLVQSGAEVKKPGSSVKVSCKASGGTFSSYSISWVRQAPGQGLEWMGRIIPILGIASYAQKFQGRVTITADKSTSTVYMELTGLRSDDTAVYYCARDRGYSDYGSHYYMDVWGKGTTVTVSS VL: QSVLTQPPSVSGAPGQRVTISCTGSSSNIGAGYDVHWYQQLPGTAPKLLIYINSNRPSGVPDRFSGSKSGTSASLAITGLQAEDEADYYCQSYDSSLSDSVFGGGTKLTVL gave koff of 0.000246

Lab note: C963 (antibody, V domains shown, human IgG1) VH: QVQLVQSGAEVKKPGSSVRVSCKASGGTFSSFTITWVRQAPGQGLEWMGRIIPNLNIPNYAQRFQGRITITAEKSTSTAYLELSSLRSEDTAVYYCARGVGYSGSGSNWYFDLWGRGTLVTVSS VL: QSVLTQPPSVSGAPGQRVTISCTGSSSNIGAGYDVHWYQQLPGTAPKLLISGHINRPSGVPDRFSGSTSGTSASLAITGLQAEDEADYYCQSYDSSLSDSVFGGGTKLTV gave koff of 0.000593

Lab note: C941 (antibody, V domains shown, human IgG1) VH: QVQLVQSGAEVKKPGSSVKVSCKASGGTSRSYPISWVRQAPGQGLEWMGRIIPIVGTANYAQRFQGRVTITADESTGTAYMELSSLRSEDTAVYYCARNRGYSDYGSVYYFDYWGQGTLVTVSS VL: QSVLTQPPSVSGAPGQRVTISCTGSSSNIGAGYDVHWYQQLPGAAPKLLIYRNINRPSGVPDRFSGSKSGTSASLAITGLQADDEADYYCQSYDSSLSGSVFGGGTKLTV gave koff of 0.000117

More entries:
Lab note: C091 (antibody, V domains shown, human IgG1) VH: QVQLVQSGAEVKKPGSSVKVSCKASGGTFSSYTISWVRQAPGQGLEWMGRIIPILGIANYAQKFQGRVTITADKSTSTAYMELSSLRSEDTAVYYCARDSGYSGYGSTYYMDVWGKGTTVTVSS VL: QSVLTQPPSVSGAPGQRVTISCTGSSSNIGAGYDVHWYQQLPGTAPKLLIYGNSNRPSGVPDRFSGSKSGTSASLAITGLQAEDEADYYCQSYDSSLSGSVFGTVTKVTVL gave koff of 0.00337
